Target: Ephrin type-B receptor 4 (Homo sapiens)
Sequence (P54760 whole entry): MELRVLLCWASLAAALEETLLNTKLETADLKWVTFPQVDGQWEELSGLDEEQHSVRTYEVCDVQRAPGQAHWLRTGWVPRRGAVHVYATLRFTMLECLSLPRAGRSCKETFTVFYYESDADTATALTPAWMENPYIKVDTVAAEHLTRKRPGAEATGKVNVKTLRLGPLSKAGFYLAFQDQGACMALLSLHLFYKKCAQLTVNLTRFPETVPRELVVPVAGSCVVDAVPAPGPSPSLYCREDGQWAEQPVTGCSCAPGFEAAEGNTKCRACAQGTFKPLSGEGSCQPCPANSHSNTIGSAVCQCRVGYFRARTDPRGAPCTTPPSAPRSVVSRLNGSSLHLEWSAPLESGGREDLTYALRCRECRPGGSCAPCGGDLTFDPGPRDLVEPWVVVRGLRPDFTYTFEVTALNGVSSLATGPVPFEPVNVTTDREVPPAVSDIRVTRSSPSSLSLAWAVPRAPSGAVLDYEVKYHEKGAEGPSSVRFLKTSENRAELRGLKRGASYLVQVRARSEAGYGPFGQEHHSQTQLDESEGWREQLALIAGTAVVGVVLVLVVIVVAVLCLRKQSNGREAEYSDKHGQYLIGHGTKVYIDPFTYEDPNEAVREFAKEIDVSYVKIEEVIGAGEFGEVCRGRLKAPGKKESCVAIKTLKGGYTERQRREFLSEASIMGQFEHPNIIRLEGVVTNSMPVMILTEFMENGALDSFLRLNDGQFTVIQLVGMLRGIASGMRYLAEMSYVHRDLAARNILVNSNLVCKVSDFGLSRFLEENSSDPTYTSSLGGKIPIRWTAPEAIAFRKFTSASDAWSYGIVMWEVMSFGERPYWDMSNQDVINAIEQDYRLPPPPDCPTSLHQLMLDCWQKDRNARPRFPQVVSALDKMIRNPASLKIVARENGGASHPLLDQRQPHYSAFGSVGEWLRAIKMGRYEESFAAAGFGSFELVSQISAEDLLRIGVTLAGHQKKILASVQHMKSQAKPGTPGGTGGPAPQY
Experiment: Binding affinity to Fc-tagged EphB4 (unknown origin) assessed as reduction in ephrin-B2 binding by SPR assay

>  <SUBSTANCE>
H-TNYLFSPNGPIARAW-OH

>  <VALUE_UNITS>
nM

>  <Kd>
2

$$$$

====

Molecular target: Ephrin type-A receptor 2 (Homo sapiens, UniProt P29317)
Sequence (P29317 whole entry): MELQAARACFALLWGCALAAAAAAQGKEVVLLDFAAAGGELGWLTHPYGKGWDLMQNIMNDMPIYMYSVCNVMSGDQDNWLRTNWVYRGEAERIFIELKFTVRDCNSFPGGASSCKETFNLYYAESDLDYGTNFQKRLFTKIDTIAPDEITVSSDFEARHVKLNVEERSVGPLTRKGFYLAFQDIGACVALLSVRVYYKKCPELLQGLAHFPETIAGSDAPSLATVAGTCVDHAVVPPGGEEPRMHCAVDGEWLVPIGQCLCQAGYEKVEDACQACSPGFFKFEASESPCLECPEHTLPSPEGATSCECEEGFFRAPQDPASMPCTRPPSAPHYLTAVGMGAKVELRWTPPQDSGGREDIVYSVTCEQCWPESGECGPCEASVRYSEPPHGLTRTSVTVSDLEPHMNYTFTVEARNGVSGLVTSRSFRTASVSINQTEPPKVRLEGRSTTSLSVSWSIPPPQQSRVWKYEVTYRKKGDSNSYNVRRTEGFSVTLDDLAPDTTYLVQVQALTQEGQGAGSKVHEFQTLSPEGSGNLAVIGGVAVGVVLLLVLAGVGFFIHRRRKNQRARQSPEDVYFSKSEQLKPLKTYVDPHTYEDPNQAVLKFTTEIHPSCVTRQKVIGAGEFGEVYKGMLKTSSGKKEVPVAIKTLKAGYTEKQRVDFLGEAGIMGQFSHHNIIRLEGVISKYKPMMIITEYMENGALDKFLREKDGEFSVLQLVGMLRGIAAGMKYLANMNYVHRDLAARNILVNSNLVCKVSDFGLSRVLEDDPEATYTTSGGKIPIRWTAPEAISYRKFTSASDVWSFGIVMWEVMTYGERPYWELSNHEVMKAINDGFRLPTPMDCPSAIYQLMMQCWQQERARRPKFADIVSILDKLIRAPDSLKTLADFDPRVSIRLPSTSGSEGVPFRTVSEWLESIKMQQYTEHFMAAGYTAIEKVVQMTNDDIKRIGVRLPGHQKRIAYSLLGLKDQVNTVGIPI
pKi: −log10 of the molar value.
OBSERVABLE: pKi

>  <SMI>
C[C@H](CCC(=O)N[C@H](CC(=O)O)Cc1c[nH]c2ccccc12)[C@H]1CC[C@H]2[C@@H]3CC[C@@H]4CCCC[C@]4(C)[C@H]3CC[C@]12C

>  <RESULT>
< 4.82

$$$$

====

Target: Ephrin type-A receptor 2 (Mus musculus)
Sequence (Q03145 whole entry): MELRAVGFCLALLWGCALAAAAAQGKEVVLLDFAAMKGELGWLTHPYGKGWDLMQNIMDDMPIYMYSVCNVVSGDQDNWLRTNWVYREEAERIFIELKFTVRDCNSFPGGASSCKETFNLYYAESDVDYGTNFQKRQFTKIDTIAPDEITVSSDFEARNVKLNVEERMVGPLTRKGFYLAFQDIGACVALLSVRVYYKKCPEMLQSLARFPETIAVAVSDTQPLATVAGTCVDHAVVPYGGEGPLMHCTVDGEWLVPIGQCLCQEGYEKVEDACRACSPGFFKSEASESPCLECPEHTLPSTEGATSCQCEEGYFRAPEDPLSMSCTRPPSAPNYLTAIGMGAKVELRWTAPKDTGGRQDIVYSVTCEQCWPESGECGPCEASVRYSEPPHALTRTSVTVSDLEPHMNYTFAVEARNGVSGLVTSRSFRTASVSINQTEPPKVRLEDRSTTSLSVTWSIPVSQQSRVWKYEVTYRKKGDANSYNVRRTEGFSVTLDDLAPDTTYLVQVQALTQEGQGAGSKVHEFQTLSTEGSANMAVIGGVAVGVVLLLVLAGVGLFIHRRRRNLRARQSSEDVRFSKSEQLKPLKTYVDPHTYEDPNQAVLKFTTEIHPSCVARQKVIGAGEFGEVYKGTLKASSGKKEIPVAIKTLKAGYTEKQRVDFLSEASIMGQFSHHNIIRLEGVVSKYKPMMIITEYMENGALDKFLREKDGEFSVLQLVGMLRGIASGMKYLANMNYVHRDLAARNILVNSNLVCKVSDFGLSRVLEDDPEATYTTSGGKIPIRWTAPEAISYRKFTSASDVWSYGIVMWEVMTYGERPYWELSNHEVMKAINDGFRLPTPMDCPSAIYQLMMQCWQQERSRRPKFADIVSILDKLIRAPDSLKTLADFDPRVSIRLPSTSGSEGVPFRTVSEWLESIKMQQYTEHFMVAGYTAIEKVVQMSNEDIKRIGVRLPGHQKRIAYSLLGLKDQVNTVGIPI
Test: Displacement of biotinylated ephrinA1-Fc from recombinant mouse EphA2 Fc chimera protein by ELISA

>  <COMPOUND>
C[C@H](CCC(=O)O)[C@H]1CC[C@H]2[C@@H]3CC[C@@H]4C[C@H](O)CC[C@]4(C)[C@H]3CC[C@]12C [LITHOCHOLIC ACID]

>  <IC50 (µM)>
57

$$$$
